The reported numbers originate from the supplement of paper PMC12042874.

# Test name: amyloid nucleation score (Sup35N fusion, yeast selection) (log enrichment); library NNK2; higher = more nucleation; inactive = no reads after selection;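 note: zero at mode of non-aggregating sequences after 7 days selection at 30°C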
Label scheme for amyloid nucleation score: Low (below -0.2), Medium (-0.2 to below 0.6), High (0.6 or more)

Reference set (10 entries):
INSERT INTO assay_data (substance, category_label) VALUES
  ('PSLWFLCRYGVTSIGLVFTL', 'Medium'),
  ('WCYELIYV', 'Low'),
  ('HVAESHMS', 'High'),
  ('GNSIVENFLCSRHQCYVM', 'High'),
  ('FHGGNFATDWFLWFINWEVA', 'Low'),
  ('LLICDSMHHTM', 'Medium'),
  ('CKKKSRTDCMLSFCVCFDGV', 'High'),
  ('LQTFMNVGVFSGDKEYPCVF', 'High'),
  ('CRLPQQKPHEMPTLDDFARS', 'Medium'),
  ('VVVNYVFPLSEFMLISDAKC', 'High');

Now consider a different substance.
Consider YDNTEASGLSWRTLLQGAVW . To which amyloid nucleation score class does it belong?
Medium
